The entries below are paired with their reported viability at 48 h, 10 µM.
experiment: Cytotoxicity against mouse 3T3-L1 cells transfected with Lenti-PPARgamma-Luc reporter assessed as cell viability at 10 uM incubated for 48 hrs by CCK-8 assay relative to control; type: toxicity, cell-based; conditions: read-out: Activity

C=C(c1ccc(O)c(Oc2cc3c(cc2OC)CCN(C)[C@@H]3Cc2ccc(OC)cc2)c1)[C@@H]1c2cc(O)c(OC)cc2CCN1C > 80%
COc1ccc(C[C@@H]2c3cc(Oc4cc(C[C@@H]5c6cc(O)c(OC)cc6CCN5C)ccc4O)c(OC)cc3CCN2C)cc1 > 80%
COc1cc2c(cc1O)[C@@H](Cc1ccc(O)c(Oc3cc4c(cc3OC)CCN(C)[C@@H]4Cc3ccc(O)cc3)c1)N(C)CC2 > 80%
C=C(c1ccc(O)c(Oc2cc3c(cc2OC)CCN(C)[C@@H]3Cc2ccc(OC)cc2)c1)[C@@H]1c2cc(OC)c(OC)cc2CCN1C > 80%
COc1cc2c(cc1OC)[C@@H](Cc1ccc(O)c(Oc3cc4c(cc3OC)CCN(C)[C@@H]4Cc3ccc(O)cc3)c1)N(C)CC2 > 80%

Req: Consider the molecule C=C(c1ccc(O)c(Oc2cc3c(cc2OC)CCN(C)[C@@H]3Cc2ccc(OC)cc2)c1)[C@H]1c2cc(O)c(OC)cc2CCN1C and give its recorded viability at 48 h, 10 µM.
Resp: < 80%

Req: Consider the molecule COc1ccc(C[C@@H]2c3cc(Oc4cc(C[C@H]5c6cc(OC)c(OC)cc6CCN5C)ccc4O)c(OC)cc3CCN2C)cc1 and give its recorded viability at 48 h, 10 µM.
Resp: < 80%

---

test: Cytotoxicity against mouse 3T3-L1 cells transfected with Lenti-PPARgamma-Luc reporter assessed as cell viability at 2 uM incubated for 48 hrs by CCK-8 assay relative to control; assay type: toxicity, cell-based; conditions: read-out: Activity
quantityName: viability at 48 h, 2 µM

Check out these entries, answers already filled in.
C=C(c1ccc(O)c(Oc2cc3c(cc2OC)CCN(C)[C@@H]3Cc2ccc(OC)cc2)c1)[C@H]1c2cc(OC)c(OC)cc2CCN1C > 80%
C=C(c1ccc(O)c(Oc2cc3c(cc2OC)CCN(C)[C@@H]3Cc2ccc(OC)cc2)c1)[C@H]1c2cc(O)c(OC)cc2CCN1C > 80%

Req: Consider the compound COc1ccc(C[C@@H]2c3cc(Oc4cc(C[C@H]5c6cc(OC)c(OC)cc6CCN5C)ccc4O)c(OC)cc3CCN2C)cc1 and give its recorded viability at 48 h, 2 µM.
Resp: > 80%

---

assay: Cytotoxicity against mouse 3T3-L1 cells transfected with Lenti-PPARgamma-Luc reporter assessed as cell viability at 15 uM incubated for 48 hrs by CCK-8 assay relative to control; type: toxicity, cell-based; conditions: read-out: Activity
The entries below are paired with their reported viability at 48 h, 15 µM.

Req: Consider the compound C=C(c1ccc(O)c(Oc2cc3c(cc2OC)CCN(C)[C@@H]3Cc2ccc(OC)cc2)c1)[C@@H]1c2cc(OC)c(OC)cc2CCN1C and give its recorded viability at 48 h, 15 µM.
Resp: > 80%

---

The entries below are paired with their reported viability at 48 h, 10 µM.
assay: Cytotoxicity against mouse 3T3-L1 cells transfected with Lenti-PPARgamma-Luc reporter assessed as cell viability at 10 uM incubated for 48 hrs by CCK-8 assay relative to control; format: toxicity, cell-based; conditions: read-out: Activity

Check out these entries, answers already filled in.
COc1ccc(C[C@@H]2c3cc(Oc4cc(C[C@@H]5c6cc(OC)c(OC)cc6CCN5C)ccc4O)c(OC)cc3CCN2C)cc1 > 80%
COc1ccc(C[C@@H]2c3cc(Oc4cc(/C=C5\CN(C)CCc6cc(OC)c(OC)cc65)ccc4O)c(OC)cc3CCN2C)cc1 > 80%
C=C(c1ccc(OC)cc1)[C@@H]1c2cc(Oc3cc(C[C@H]4c5cc(OC)c(OC)cc5CCN4C)ccc3O)c(OC)cc2CCN1C > 80%

Could you now consider this next compound?
Req: Consider the compound C=C(c1ccc(O)c(Oc2cc3c(cc2OC)CCN(C)[C@@H]3Cc2ccc(OC)cc2)c1)[C@H]1c2cc(OC)c(OC)cc2CCN1C and give its recorded viability at 48 h, 10 µM.
Resp: < 80%
